tested system: FXR (Homo sapiens (Human), UniProt Q96RI1)
Sequence (Q96RI1 262-486): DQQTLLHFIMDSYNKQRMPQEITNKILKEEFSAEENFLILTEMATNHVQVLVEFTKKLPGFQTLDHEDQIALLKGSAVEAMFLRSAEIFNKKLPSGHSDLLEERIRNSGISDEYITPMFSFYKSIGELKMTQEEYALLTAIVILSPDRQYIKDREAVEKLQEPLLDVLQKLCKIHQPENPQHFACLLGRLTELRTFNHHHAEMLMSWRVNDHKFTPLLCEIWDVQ
test method notes: transient human FXR/Gal4-luciferase reporter assay
Assay type: cell-based
quantity measured: pEC50
Formally, pEC50 is defined as -log10 of the concentration c, with c in mol/L.

Please review the following examples before continuing.
[[record]]
compound = "CCOc1ncc(-c2cccc(N(CC34CCC(c5nc(C(C)(C)C)no5)(CC3)CC4)C(=O)[C@H]3C[C@@H](OC)C3)c2)cn1"
data_value = 6.16

[[record]]
compound = "CCOc1ncc(-c2cccc(N(CC34CCC(c5nc(C(F)F)no5)(CC3)CC4)C(=O)C34CC(F)(C3)C4)c2)cn1"
data_value = 6.79

[[record]]
compound = "CC(F)(F)c1nc(C23CCC(CN(C(=O)C45CC(F)(C4)C5)c4cccc(-c5ccc(OC(F)F)cc5)c4)(CC2)CC3)no1"
data_value = 7.14

[[record]]
compound = "Cc1nc2ccc(-c3cccc(N(CC45CCC(c6nc(C7CC7)no6)(CC4)CC5)C(=O)C45CC(F)(C4)C5)c3)cc2s1"
data_value = 7.26

[[record]]
compound = "Cc1nc2ccc(-c3cccc(N(CC45CCC(c6nc(C7CC7)no6)(CC4)OC5)C(=O)C4CC(F)(F)C4)c3)cc2s1"
data_value = 6.02

[[record]]
compound = "CS(=O)(=O)Nc1ccc(-c2cccc(N(CC34CCC(c5ccc(C(F)(F)F)cn5)(CC3)CC4)C(=O)C34CC(F)(C3)C4)c2)cc1"
data_value = 6.06


GET /values?readout=pEC50&system=FXR (Homo sapiens (Human), UniProt Q96RI1)&item= `Cc1nc2ccc(-c3cccc(N(CC45CCC(c6noc(C7(C(F)(F)F)CC7)n6)(CC4)CC5)C(=O)C45CC(F)(C4)C5)c3)cc2s1`
6.92

GET /values?readout=pEC50&system=FXR (Homo sapiens (Human), UniProt Q96RI1)&item= `CC(C)(O)c1ccc(-c2cccc(N(CC34CCC(c5noc(C(C)(C)F)n5)(CC3)CC4)C(=O)NCC3(S(C)(=O)=O)CC3)c2)cc1`
6.53
